Recorded APTT by entry
tested on: Plasma; test: Anticoagulant activity in pooled human plasma assessed as activated partial thromboplastin time at 0.1 mg/ml; format: ADME, cell-free
Write the answer as a number in s, unit excluded.

CC(C)CCC[C@@H](C)[C@H]1CC[C@H]2[C@@H]3CC[C@H]4C[C@@H](O[C@@H]5O[C@H](COS(=O)(=O)[O-])[C@@H](O[C@H]6O[C@H](COS(=O)(=O)[O-])[C@@H](OS(=O)(=O)[O-])[C@H](OS(=O)(=O)[O-])[C@H]6OS(=O)(=O)[O-])[C@H](OS(=O)(=O)[O-])[C@H]5OS(=O)(=O)[O-])CC[C@]4(C)[C@H]3CC[C@]12C.[Na+].[Na+].[Na+].[Na+].[Na+].[Na+].[Na+]    38.6

// switching to the query molecule
In plain terms, "CCCCCCCCCCCCCCCCCC(=O)NCCCO[C@@H]1O[C@H](COS(=O)(=O)[O-])[C@@H](O[C@H]2O[C@H](COS(=O)(=O)[O-])[C@@H](O[C@H]3O[C@H](COS(=O)(=O)[O-])[C@@H](OS(=O)(=O)[O-])[C@H](OS(=O)(=O)[O-])[C@H]3OS(=O)(=O)[O-])[C@H](OS(=O)(=O)[O-])[C@H]2OS(=O)(=O)[O-])[C@H](OS(=O)(=O)[O-])[C@H]1OS(=O)(=O)[O-].[Na+].[Na+].[Na+].[Na+].[Na+].[Na+].[Na+].[Na+].[Na+].[Na+]" has a documented APTT of 51.1

====

test system: HMVEC; test: Antiangiogenic activity in FGF1-stimulated HMVEC cells after 72 hrs by CellTiter assay; type: functional, cell-based; conditions: Homo sapiens
Activity calls are given as the source filed them. No cut-off for these calls is given here.
ATTRIBUTE MEASURED: Activity

CC(C)CCC[C@@H](C)[C@H]1CC[C@H]2[C@@H]3CC[C@H]4C[C@@H](O[C@@H]5O[C@H](COS(=O)(=O)[O-])[C@@H](O[C@H]6O[C@H](COS(=O)(=O)[O-])[C@@H](OS(=O)(=O)[O-])[C@H](OS(=O)(=O)[O-])[C@H]6OS(=O)(=O)[O-])[C@H](OS(=O)(=O)[O-])[C@H]5OS(=O)(=O)[O-])CC[C@]4(C)[C@H]3CC[C@]12C.[Na+].[Na+].[Na+].[Na+].[Na+].[Na+].[Na+]    Active
CC(C)CCC[C@@H](C)[C@H]1CC[C@H]2[C@@H]3CC[C@H]4C[C@@H](OCc5cn([C@@H]6O[C@H](COS(=O)(=O)[O-])[C@@H](O[C@@H]7O[C@H](COS(=O)(=O)[O-])[C@H](OS(=O)(=O)[O-])[C@H](OS(=O)(=O)[O-])[C@H]7OS(=O)(=O)[O-])[C@H](OS(=O)(=O)[O-])[C@H]6OS(=O)(=O)[O-])nn5)CC[C@]4(C)[C@H]3CC[C@]12C.[Na+].[Na+].[Na+].[Na+].[Na+].[Na+].[Na+]    Active
CC(C)CCC[C@@H](C)[C@H]1CC[C@H]2[C@@H]3CC[C@H]4C[C@@H](O[C@@H]5O[C@H](COS(=O)(=O)[O-])[C@@H](O[C@@H]6O[C@H](COS(=O)(=O)[O-])[C@@H](OS(=O)(=O)[O-])[C@H](OS(=O)(=O)[O-])[C@H]6OS(=O)(=O)[O-])[C@H](OS(=O)(=O)[O-])[C@H]5OS(=O)(=O)[O-])CC[C@]4(C)[C@H]3CC[C@]12C.[Na+].[Na+].[Na+].[Na+].[Na+].[Na+].[Na+]    Active

The reported measurements were obtained from ChEMBL document CHEMBL2057149.
